STUDY SYSTEM: human AKT serine/threonine Kinase 2 (AKT2), AKT2 (gene 208) (UniProt P31751)
Sequence (P31751 whole entry, looked up): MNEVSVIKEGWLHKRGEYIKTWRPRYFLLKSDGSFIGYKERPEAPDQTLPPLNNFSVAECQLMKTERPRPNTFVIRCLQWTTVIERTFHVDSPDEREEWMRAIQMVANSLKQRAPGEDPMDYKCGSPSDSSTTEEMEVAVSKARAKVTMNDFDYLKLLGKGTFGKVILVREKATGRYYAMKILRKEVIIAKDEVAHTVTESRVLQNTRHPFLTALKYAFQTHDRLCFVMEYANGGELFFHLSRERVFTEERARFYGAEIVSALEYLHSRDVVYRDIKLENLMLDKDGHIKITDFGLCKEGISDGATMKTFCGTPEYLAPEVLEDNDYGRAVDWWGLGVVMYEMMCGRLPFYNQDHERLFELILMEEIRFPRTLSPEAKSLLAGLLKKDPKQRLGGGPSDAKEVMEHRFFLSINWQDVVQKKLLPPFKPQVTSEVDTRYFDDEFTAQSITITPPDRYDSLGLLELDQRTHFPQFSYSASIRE
ASSAY TEXT: NVS_ENZ_hAKT2: NovaScreen (NVS) Enzymatic Assay for human AKT serine/threonine Kinase 2 (AKT2) (AID 2283141)
Inconclusive results are not listed. Active and inactive are the calls of the source. Rule for the calls: active = hit-call score of the fitted dose curve at least 0.9, where 1 is the maximum; inconclusive = response in the unintended direction; inactive = score below 0.9.

MOLECULE | outcome
O=C(Nc1ccc([N+](=O)[O-])cc1Cl)c1cc(Cl)ccc1O | inactive
CCC(O)=C1C(=O)CC(C(=O)O)CC1=O (centres undefined) | inactive
CCCCC(CC)CN1C(=O)C2C3C=CC(C3)C2C1=O (centres undefined) | inactive
OB(O)O | inactive
